Measured molar heat capacity at constant pressure by item
# Assay Comment: molar heat capacity at constant pressure
# Protocol Conditions: 327.15 K; 101.33 kPa; Liquid; Large sample (1 g) DSC

Compound	molar heat capacity at constant pressure (J/K/mol)
CCCC[n+]1cccc(C)c1.O=S(=O)([O-])C(F)(F)F [1-butyl-3-methylpyridinium trifluoromethanesulfonate]	467
CC[n+]1cccc(C)c1.O=S(=O)([N-]S(=O)(=O)C(F)(F)F)C(F)(F)F	517
CCCCn1cc[n+](C)c1.O=S(=O)([O-])C(F)(F)F [1-butyl-3-methylimidazolium trifluoromethanesulfonate]	460
CCCCn1cc[n+](C)c1.N#CN=C=[N-] [1-butyl-3-methylimidazolium dicyanamide]	389
CCC[n+]1cccc(C)c1.O=S(=O)([N-]S(=O)(=O)C(F)(F)F)C(F)(F)F	543
CCCC[n+]1cccc(C)c1.O=S(=O)([N-]S(=O)(=O)C(F)(F)F)C(F)(F)F	576

----------
Measured molar heat capacity at constant pressure by item
# Assay Comment: molar heat capacity at constant pressure
# Protocol Conditions: 303.15 K; 101.33 kPa; Liquid; Large sample (1 g) DSC
Measurement Name: molar heat capacity at constant pressure (J/K/mol)

Molecule	Observed Value
CCCCn1cc[n+](C)c1.N#CN=C=[N-] [1-butyl-3-methylimidazolium dicyanamide]	379
CCCC[n+]1cccc(C)c1.O=S(=O)([N-]S(=O)(=O)C(F)(F)F)C(F)(F)F	554
CCC[n+]1cccc(C)c1.O=S(=O)([N-]S(=O)(=O)C(F)(F)F)C(F)(F)F	522
CC[n+]1cccc(C)c1.O=S(=O)([N-]S(=O)(=O)C(F)(F)F)C(F)(F)F	497

----------
Measured molar heat capacity at constant pressure by item
# Assay Comment: molar heat capacity at constant pressure
# Protocol Conditions: 300.15 K; 101.33 kPa; Liquid; Large sample (1 g) DSC

Molecule	Units Label	molar heat capacity at constant pressure
CCCC[n+]1cccc(C)c1.O=S(=O)([N-]S(=O)(=O)C(F)(F)F)C(F)(F)F	J/K/mol	551
CCC[n+]1cccc(C)c1.O=S(=O)([N-]S(=O)(=O)C(F)(F)F)C(F)(F)F	J/K/mol	519
CC[n+]1cccc(C)c1.O=S(=O)([N-]S(=O)(=O)C(F)(F)F)C(F)(F)F	J/K/mol	494
CCCCn1cc[n+](C)c1.N#CN=C=[N-] [1-butyl-3-methylimidazolium dicyanamide]	J/K/mol	377

----------
# Assay Comment: molar heat capacity at constant pressure
# Protocol Conditions: 320.15 K; 101.33 kPa; Liquid; Large sample (1 g) DSC
Measurement Name: molar heat capacity at constant pressure (J/K/mol)

Compound	Measurement Name	Units Label	Observed Value
CCCCn1cc[n+](C)c1.N#CN=C=[N-] [1-butyl-3-methylimidazolium dicyanamide]	molar heat capacity at constant pressure	J/K/mol	386
CCCC[n+]1cccc(C)c1.O=S(=O)([N-]S(=O)(=O)C(F)(F)F)C(F)(F)F	molar heat capacity at constant pressure	J/K/mol	570
CC[n+]1cccc(C)c1.O=S(=O)([N-]S(=O)(=O)C(F)(F)F)C(F)(F)F	molar heat capacity at constant pressure	J/K/mol	511
CCC[n+]1cccc(C)c1.O=S(=O)([N-]S(=O)(=O)C(F)(F)F)C(F)(F)F	molar heat capacity at constant pressure	J/K/mol	537

----------
Measured molar heat capacity at constant pressure by item
# Assay Comment: molar heat capacity at constant pressure
# Protocol Conditions: 325.15 K; 101.33 kPa; Liquid; Large sample (1 g) DSC
Measurement Name: molar heat capacity at constant pressure (J/K/mol)

Compound	Measurement Name	Observed Value
CCCC[n+]1cccc(C)c1.O=S(=O)([N-]S(=O)(=O)C(F)(F)F)C(F)(F)F	molar heat capacity at constant pressure	574
CCCCn1cc[n+](C)c1.O=S(=O)([O-])C(F)(F)F [1-butyl-3-methylimidazolium trifluoromethanesulfonate]	molar heat capacity at constant pressure	458
CCCCn1cc[n+](C)c1.N#CN=C=[N-] [1-butyl-3-methylimidazolium dicyanamide]	molar heat capacity at constant pressure	388
CCCC[n+]1cccc(C)c1.O=S(=O)([O-])C(F)(F)F [1-butyl-3-methylpyridinium trifluoromethanesulfonate]	molar heat capacity at constant pressure	464
CC[n+]1cccc(C)c1.O=S(=O)([N-]S(=O)(=O)C(F)(F)F)C(F)(F)F	molar heat capacity at constant pressure	515
CCC[n+]1cccc(C)c1.O=S(=O)([N-]S(=O)(=O)C(F)(F)F)C(F)(F)F	molar heat capacity at constant pressure	541
